procedure_details: Ratio of drug level in brain to plasma in C57BL/6J mouse at 20 mg/kg, po measured after 4 hr
Assay type: ADME, organism-based
run_conditions: brain and plasma
result_type: Kp at 1 h

Req: Please look up its Kp at 1 h: O=S(=O)(N1CCC(Nc2ncnc3ccc(C(c4ccc(Cl)cc4)c4ccc(Cl)cc4)cc23)CC1)C(F)(F)F
Resp: 0.08

----------
procedure_details: Ratio of drug level in brain to plasma in C57BL/6J mouse at 20 mg/kg, po measured after 1 hr
Format: ADME, organism-based
run_conditions: brain and plasma
result_type: Kp at 1 h
Numbers only.

Req: Please look up its Kp at 1 h: O=S(=O)(N1CCC(Nc2ncnc3ccc(C(c4ccc(Cl)cc4)c4ccc(Cl)cc4)cc23)CC1)C(F)(F)F
Resp: 0.02
